tested on: Aβ1-40 secreted from HEK293 cells stably expressing wildtype human APP695 protein (HEK-APPwt cells); assay: Aβ Cell Based Assay (Aβ1-40 secretion, ELISA); details: Homo sapiens, HEK293, 6 h, 6 hours incubation, reduction of Aβ1-40 secretion
Structures can show the parent of a compound that is named as a salt.
READOUT NAME: EC50
Number plus unit, in that order.

Entry under test: O=C(Nc1nc2cc(-c3cccc(C(F)(F)F)c3)ccc2[nH]1)c1cn2ccc(CNC(CO)Cc3ccccc3)cc2n1 (stereo not drawn) . Its EC50 was 7.65 µM

Data point: `Cc1cccc2nc(C(=O)Nc3nc4cc(-c5ccc(Cl)c(C(F)(F)F)c5)ccc4[nH]3)cn12` ; EC50 = 0.08 µM

Measured EC50 of `Cc1cccn2cc(C(=O)Nc3nc4cc(-c5cccc(Cl)c5)ccc4[nH]3)nc12` : 1.84 µM

Documented EC50 of `O=C(Nc1nc2cc(OCc3ccc(C(F)(F)F)cc3)ccc2[nH]1)c1cn2c(C(F)(F)F)cccc2n1` : 8.76 µM

The recorded EC50 for `Cc1cccc2nc(C(=O)Nc3nc4cc(-c5ccc(F)c(C(F)(F)F)c5)ccc4[nH]3)cn12` is 0.18 µM

Entry `CN(C)Cc1ccn2cc(C(=O)Nc3nc4cc(-c5cccc(C(F)(F)F)c5)ccc4[nH]3)nc2c1` ; EC50 = 4.54 µM

For this molecule ( O=C(Nc1nc2cc(-c3cccc(C(F)(F)F)c3)ccc2[nH]1)c1cn2c(OC3CCNCC3)cccc2n1 [Example 2, trihydrochloride] ), measured EC50 is 6.4 µM

Lab book: EC50 of `Cc1cccc2nc(C(=O)Nc3nc4cc(-c5cc(Cl)ccc5Cl)ccc4[nH]3)cn12` noted as 0.73 µM

EC50 in this record for `CCOc1cccc(-c2ccc3[nH]c(NC(=O)c4cn5c(C)cccc5n4)nc3c2)c1` : 2.3 µM

Sample `Cc1cccc2nc(C(=O)Nc3nc4cc(-c5ccc(F)c(F)c5)ccc4[nH]3)cn12` ; EC50 observed: 1.32 µM

New cases:
Measured EC50 of `COc1ccc(-c2ccc3[nH]c(NC(=O)c4cn5c(C)cccc5n4)nc3c2)cc1C(F)(F)F` : 0.89 µM

The reported EC50 of the molecule Cc1cccc2nc(C(=O)Nc3nc4cc(C5CCC(C)CC5)ccc4[nH]3)cn12 (stereo not drawn) was 1.82 µM

Lab note: measured EC50 of `Cc1cccc2nc(C(=O)Nc3nc4cc(-c5cccc(C#N)c5)ccc4[nH]3)cn12` was 1.1 µM

Looking up `CC(C)CN(C)Cc1ccc2nc(C(=O)Nc3nc4cc(-c5cccc(C(F)(F)F)c5)ccc4[nH]3)cn2c1` , I see its EC50 listed as 4.32 µM

====

test system: Aβ1-40 secreted from HEK293 cells stably expressing wildtype human APP695 protein (HEK-APPwt cells); assay: Aβ Cell Based Assay (Aβ1-40 secretion, ELISA); conditions: Homo sapiens, HEK293, 6 h, 6 hours incubation, reduction of Aβ1-40 secretion
READOUT NAME: EC50 (µM)
Answer format: numeric, µM implied, no suffix.

Entry `Cc1cccc2nc(C(=O)Nc3nc4cc(-c5ccc(C(F)(F)F)c(Cl)c5)ccc4[nH]3)cn12` , EC50 reported as 0.22

Continuing:
Just so you know, measured EC50 for `Cc1cccc2nc(C(=O)Nc3nc4cc(OCc5ccccc5C(F)(F)F)ccc4[nH]3)cn12` came out at 3.45

Cited source for all entries: patent US20120101093A1
